Source: ChEMBL document CHEMBL2069304

- System: MCF7
- experiment description: Cytotoxicity against human MCF7 cells incubated for 3 days by SRB assay
- Format: functional, cell-based
- condition: MCF7, 72 h
parameter: IC50 (µM)
Please reply with the bare figure in µM and do not write the unit itself.

Known results for molecules:
INSERT INTO measurements (molecule, value_unit, numeric_readout) VALUES
  ('[C-]#[N+][C@@H]1[C@H]2c3c[nH]c4cccc(c34)C(C)(C)[C@H]2CC[C@]1(C)C=C', 'µM', 43.7),
  ('[C-]#[N+][C@H]1C(=C)[C@@H](C=C)C[C@@H]2[C@@H]1c1c[nH]c3cccc(c13)C2(C)C (relative stereo)', 'µM', 35.4);

Now take the following molecule into account.
Name the recorded IC50 for [C-]#[N+][C@@H]1[C@H]2c3c([nH]c4ccccc34)C(C)(C)[C@H]2C[C@@H](Cl)[C@@]1(C)C=C .
28.3

====

Consider the following compounds and their measured IC50 readings.
- Tested on: IMR-90
- experiment description: Cytotoxicity against human IMR90 cells incubated for 3 days by SRB assay
- Assay type: cell-based
- condition: IMR-90, 72 h
Please reply with the bare figure in µM and do not write the unit itself.

INSERT INTO measurements (chemical_structure, parameter, value_unit, numeric_readout) VALUES
  ('[C-]#[N+][C@@H]1[C@H]2c3c[nH]c4cccc(c34)C(C)(C)[C@@H]2CC[C@]1(C)C=C', 'IC50', 'µM', 31.9);

Now take the following compound into account.
Name the recorded IC50 for [C-]#[N+][C@@H]1[C@H]2c3c[nH]c4cccc(c34)C(C)(C)[C@H]2C[C@@H](Cl)[C@]1(C)C=C .
39.1

====

- System: Vero
- experiment description: Cytotoxicity against african green monkey Vero cells by CellTiter 96 aqueous nonradioactive cell proliferation assay
- Format: cell-based
- condition: Chlorocebus sabaeus
pIC50: −log10 of the molar value.
parameter: pIC50

Known results for compounds:
INSERT INTO assay_data (compound, tested_target, result) VALUES
  ('CCCCCC#CC#C/C=C/CCCC[C@H]1C[C@@H](C)C(=O)N1', 'Vero', '< 4.00'),
  ('[C-]#[N+]C1=C2c3c[nH]c4cccc(c34)C(C)(C)[C@H]2CC[C@]1(C)C=C (relative stereo)', 'Vero', '< 4.00');

Now take the following compound into account.
Quick check: pIC50 on Vero, item [C-]#[N+]C1=C2c3c[nH]c4cccc(c34)C(C)(C)[C@H]2C[C@@H](Cl)[C@]1(C)C=C ?
< 4.00

====

Consider the following molecules and their measured pIC50 readings.
- System: IMR-90
- experiment description: Cytotoxicity against human IMR90 cells incubated for 3 days by SRB assay
- Type: cell-based
- condition: IMR-90, 72 h
# pIC50: negative log10 of molar concentration; output just the value

Known results for molecules:
INSERT INTO results (molecule, tested_target, numeric_readout) VALUES
  ('[C-]#[N+][C@@H]1[C@H]2c3c[nH]c4cccc(c34)C(C)(C)[C@H]2CC[C@]1(C)C=C', 'IMR-90', 4.41),
  ('[C-]#[N+][C@H]1C(=C)[C@@H](C=C)C[C@@H]2[C@@H]1c1c[nH]c3cccc(c13)C2(C)C (relative stereo)', 'IMR-90', 3.95),
  ('CC[C@@]1(O)C(=O)OCc2c1cc1n(c2=O)Cc2cc3ccccc3nc2-1', 'IMR-90', 6.37),
  ('[C-]#[N+][C@@H]1[C@H]2c3c([nH]c4ccccc34)C(C)(C)[C@H]2C[C@@H](Cl)[C@@]1(C)C=C', 'IMR-90', 4.33);

Now take the following molecule into account.
Quick check: pIC50 on IMR-90, item [C-]#[N+][C@@H]1C2=C3C(=O)Nc4cccc(c43)C(C)(C)[C@H]2C[C@@H](Cl)[C@]1(C)C=C [ANHYDROHAPALOXINDOLE A] ?
4.10
